# Method Description: APR_HepG2_P-H2AX_24hr: Apredica 24-hour HepG2 Assay for H2AX Phosphorylation (AID 2282920)
# Run Conditions: high-content imaging, actives raise or lower the signal
Activity calls are given as the source filed them. The calls were made as follows: active = hit-call score of the fitted dose curve at least 0.9, where 1 is the maximum; inactive = score below 0.9.
Result category, one only: active, inactive

Observe how each entry below is paired with its result.
CCN(CC)CCO : inactive
[O-][Cl+]O : active
CC(C)(C)OOC(=O)c1ccccc1 : active

Which outcome was assigned to c1ccc(C2CO2)cc1 (centres undefined) in this test? inactive

Test call, this compound: c1ccc(N=Nc2ccccc2)cc1 inactive

GET /call?item= [As]#[In] returns the recorded outcome of this test. inactive

// outcome(item) with item = ClC1=C(Cl)[C@]2(Cl)[C@H]3[C@H]([C@@H]4C=C[C@H]3C4)[C@@]1(Cl)C2(Cl)Cl active

Could you check what this test reported for Clc1ccc(C(c2ccc(Cl)cc2)C(Cl)Cl)cc1 ? active

Give the logged outcome of this assay for the following compound: C[N+](C)(C)CC1CO1 (centres undefined) inactive

// outcome(item) with item = Nc1cc(Cl)cc(C(=O)O)c1Cl inactive
